Data provenance: PubChem BioAssay (EPA / NIEHS)

read-out: Urokinase-type plasminogen activator receptor (uPAR), PLAUR (gene 5329); test: BSK_4H_uPAR: BioMAP Diversity Plus: 4H Assay for Urokinase-type plasminogen activator receptor (uPAR) Biomarker Activity (AID 2283030); conditions: primary human endothelial cells (HUVEC); actives raise or lower the signal
Calls of active or inactive are those of the source. How the source made its calls: active means hit-call score of the fitted dose curve at least 0.9, where 1 is the maximum; inactive means score below 0.9.
Outcomes you can answer with include only these: YES for active, NO for inactive

Known results for compounds:
Query: Would you mind telling me which call this test gave Cn1c(=O)c2c(ncn2C)n(C)c1=O ?
Reply: NO

Query: Would you mind telling me which call this test gave CCCCCCCCCCCCc1ccccc1 ?
Reply: NO

Query: Would you mind telling me which call this test gave CC1=CC(=O)CC(C)(C)C1 ?
Reply: NO

Query: Would you mind telling me which call this test gave CC(C)=CCC/C(C)=C\CO ?
Reply: NO

Query: Would you mind telling me which call this test gave CC(C)CCCCCCCOC(=O)CCCCC(=O)OCCCCCCCC(C)C ?
Reply: NO

Query: Would you mind telling me which call this test gave CCOC(=O)CC(CC(=O)OCC)(OC(C)=O)C(=O)OCC ?
Reply: NO

Query: Would you mind telling me which call this test gave CC/C(=C\C(=N/O)C(N)=O)C(C)[N+](=O)[O-] (stereo not given) ?
Reply: NO

Query: Would you mind telling me which call this test gave C1N2CN3CN1CN(C2)C3 ?
Reply: NO

Continuing:
Query: Would you mind telling me which call this test gave CN(C)c1ccc(N=NS(=O)(=O)O)cc1 ?
Reply: NO

Query: Would you mind telling me which call this test gave Cc1[nH]cnc1C[C@H]1CCc2c(C)c3ccccc3n2C1=O ?
Reply: YES
